- target-or-system: DNA repair protein RAD52 homolog (Homo sapiens)
- method-summary: RAD52 DNA annealing inhibitors, primary screen, biochemical, FRET, single point, set 2 (AID 651710)
- setup-conditions: recombinant RAD52 DNA annealing, FRET fluorescence; at 18.7 µM; stronger effect = higher value
Out of some 360,000 compounds screened, about 1,600 (0.44%) were called active. Shown is part of a subset that was picked to be rich in actives.
result-type: inhibition (%)
Give the quantity in %, number only.

Here is how some compounds turned out for inhibition.
{"compound": "CO[C@@H]1CN(C)C(=O)c2cc(NC(=O)Nc3ccc4c(c3)OCO4)ccc2OC[C@@H](C)NC[C@@H]1C", "inhibition (%)": -75.6}
{"compound": "CCCn1c2ccccc2c2cnn(CC(=O)NCCCN3CCCCC3CC)c(=O)c21 (stereo not drawn)", "inhibition (%)": 6.95}
{"compound": "O=S(=O)(c1ccccc1)N1CCCCN2[C@H](C1)[C@H](c1ccc(-c3ccccc3)cc1)[C@@H]2CO", "inhibition (%)": -26.6}
{"compound": "N#Cc1ccc(-c2ccc(C3[C@H]4CNC[C@@H]3N4S(=O)(=O)c3ccccc3F)cc2)cc1 (stereo partly drawn)", "inhibition (%)": 28.8}
{"compound": "CCCC#Cc1ccc([C@H]2[C@@H](CO)N3CCCCN(C(=O)c4ccc5c(c4)OCO5)C[C@@H]23)cc1", "inhibition (%)": -42.9}
{"compound": "Oc1ccc(N=Cc2sc3ccccc3c2Cl)cc1", "inhibition (%)": 55.8}
{"compound": "CN1C(=O)CN2CCc3ccccc3C2c2cc(Cl)ccc21 (stereo not drawn)", "inhibition (%)": -6.27}
{"compound": "CC=Cc1ccc2n(c1=O)C[C@@H]1[C@@H](CO)[C@H](C(=O)N(C)C)[C@H]2N1CCc1ccccc1 (mixture of isomers)", "inhibition (%)": -10.1}
{"compound": "COc1ccccc1C#Cc1cnc2c(c1)C(=O)N([C@@H](C)CO)C[C@@H](C)[C@@H](CN(C)C(=O)CN(C)C)O2", "inhibition (%)": 51.1}
{"compound": "O=C(CCC(=O)Nc1ccccc1)N/N=C/c1ccccc1F", "inhibition (%)": -7.35}

Prompt line: I am curious: what inhibition value has been reported for CCN(CC)C(=O)CC(c1ccc2c(c1)OCO2)c1c(OC)cc(OC)c2c(-c3ccccc3)cc(=O)oc12 (stereo not drawn) ?
Response line: -104

Prompt line: I am curious: what inhibition value has been reported for Cc1ccc2c(c1)C1CN(C)CCC1N2C(=S)Nc1ccc(OC(F)F)cc1 (stereo not drawn) ?
Response line: -9.14

Prompt line: I am curious: what inhibition value has been reported for `COc1ccccc1S(=O)(=O)N(C)C[C@H]1Oc2cc(C#CCC3CCCC3)ccc2S(=O)(=O)N([C@@H](C)CO)C[C@H]1C` ?
Response line: 9.21

Prompt line: I am curious: what inhibition value has been reported for `C[C@H]1CN([C@@H](C)CO)C(=O)c2cc(NC(=O)CCC(F)(F)F)ccc2O[C@H]1CN(C)Cc1ccc(C(=O)O)cc1` ?
Response line: -6.5

Prompt line: I am curious: what inhibition value has been reported for N#Cc1cccc(-c2ccc(C3[C@H]4CNC[C@@H]3N4Cc3cncnc3)cc2)c1 (stereo partly drawn) ?
Response line: -10.4
